Where do these numbers come from? They come from PubChem BioAssay AID2060510.

Quick list: viability, T/C per entry.
Tested on: 439559-082-T-J2-PDC spheroids viability
PROTOCOL TEXT: Anticancer human tumor 439559-082-T-J2-PDC patient-derived colon adenocarcinoma cell line growth inhibition [GQUAD]
CONDITION SET: second compound 0.316 µM; first compound 0.316 µM; stronger effect = lower value
PROPERTY NAME: viability, T/C (%)

COMPOUND	TEST VALUE
Cn1ncnc1[C@H]1c2n[nH]c(=O)c3cc(F)cc(c23)N[C@@H]1c1ccc(F)cc1 + Cc1[nH]c2ccc(F)cc2c1-c1nc2c3cccnc3c3ncccc3c2[nH]1	85.8
COc1cc(C2c3cc4c(cc3C(OC3OC5COC(C)OC5C(O)C3O)C3COC(=O)C23)OCO4)cc(OC)c1O (stereo not drawn) + Cc1[nH]c2ccc(F)cc2c1-c1nc2c3cccnc3c3ncccc3c2[nH]1	103
C#Cc1c(F)ccc2cc(O)cc(-c3ncc4c(N5CC6CCC(C5)N6)nc(OCC56CCCN5CC(F)C6)nc4c3F)c12 (stereo not drawn) + Cc1[nH]c2ccc(F)cc2c1-c1nc2c3cccnc3c3ncccc3c2[nH]1	90.8
O=C(NO)c1cnc(N2CCN(S(=O)(=O)c3ccc4ccccc4c3)CC2)nc1 + Cc1[nH]c2ccc(F)cc2c1-c1nc2c3cccnc3c3ncccc3c2[nH]1	76
CC(C)n1c(=O)n(C)c2cnc3cc(F)c(-c4ccc(OCCCN5CCCCC5)nc4)cc3c21 + Cc1cnc(CNC(=O)c2c(=O)c3ccc(N4CCCN(C)CC4)nc3n3c2sc2ccccc23)cn1	59.1
COc1ncnc(C2CC2)c1-c1ncc2cnn(Cc3ccc(-c4nc(C(F)(F)F)cn4C(C)C)cc3)c2n1 + Cc1cnc(CNC(=O)c2c(=O)c3ccc(N4CCCN(C)CC4)nc3n3c2sc2ccccc23)cn1	89.5
CC1COCCN1c1cc(-c2ccnn2C)c2ccnc(-c3ccn[nH]3)c2n1 (stereo not drawn) + CN(C)c1ccc(Nc2c3ccc(NC(=O)CCN4CCCC4)cc3nc3cc(NC(=O)CCN4CCCC4)ccc23)cc1	36.7
COc1ccc([C@@H](O)c2cc(-c3ncnc4cc(N5CCOCC5)ccc34)c(F)cc2Cl)nn1 + Cc1[nH]c2ccc(F)cc2c1-c1nc2c3cccnc3c3ncccc3c2[nH]1	92.1
C=CCn1c(=O)c2cnc(Nc3ccc(N4CCN(C)CC4)cc3)nc2n1-c1cccc(C(C)(C)O)n1 + CN(C)c1ccc(Nc2c3ccc(NC(=O)CCN4CCCC4)cc3nc3cc(NC(=O)CCN4CCCC4)ccc23)cc1	82.7
COc1cccc2c1C(=O)c1c(O)c3c(c(O)c1C2=O)CC(O)(C(=O)CO)CC3OC1CC(N)C(O)C(C)O1 (stereo not drawn) + CN(C)c1ccc(Nc2c3ccc(NC(=O)CCN4CCCC4)cc3nc3cc(NC(=O)CCN4CCCC4)ccc23)cc1	91.9
CC(C)(O)C1CCC(Nc2ccc3ncc(-c4cccc(C(F)(F)F)c4)n3n2)CC1 (stereo not drawn) + Cc1[nH]c2ccc(F)cc2c1-c1nc2c3cccnc3c3ncccc3c2[nH]1	62.4
CCCS(=O)(=O)Nc1ccc(F)c(C(=O)c2c[nH]c3ncc(-c4ccc(Cl)cc4)cc23)c1F + Cc1cnc(CNC(=O)c2c(=O)c3ccc(N4CCCN(C)CC4)nc3n3c2sc2ccccc23)cn1	90
COc1cccc2c1C(=O)c1c(O)c3c(c(O)c1C2=O)CC(O)(C(=O)CO)CC3OC1CC(N)C(O)C(C)O1 (stereo not drawn) + Cc1[nH]c2ccc(F)cc2c1-c1nc2c3cccnc3c3ncccc3c2[nH]1	85.9

###

System: 439559-082-T-J2-PDC spheroids viability
PROTOCOL TEXT: Anticancer human tumor 439559-082-T-J2-PDC cell line growth inhibition [GQUAD];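 note: spheroids exposed to the agents for 7 days before readout; percent of luminescence signal in DMSO vehicle wells taken as 100% viability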
CONDITION SET: second compound 0.0316 µM; first compound 0.1 µM; stronger effect = lower value
From the text: DNA G-quadruplex Stabilizer Agents in Combinations in Complex Spheroids A high-throughput screen of multi-cell type tumor spheroids was designed to identify active combinations of DNA G-quadruplex stabilizer agents and targeted small molecules. […] Compounds. […] If the clinical Cmax for an agent had not been determined, the highest concentration tested was 10 microM. […]

MOLECULE	viability, T/C
C#Cc1c(F)ccc2cc(O)cc(-c3ncc4c(N5CC6CCC(C5)N6)nc(OCC56CCCN5CC(F)C6)nc4c3F)c12 (stereo unspecified) + CN(C)c1ccc(Nc2c3ccc(NC(=O)CCN4CCCC4)cc3nc3cc(NC(=O)CCN4CCCC4)ccc23)cc1	70.7%
CC1COCCN1c1cc(C2(O)CC3CCC(C2)O3)c2cnn(-c3ccn[nH]3)c2n1 (stereo unspecified) + Cc1[nH]c2ccc(F)cc2c1-c1nc2c3cccnc3c3ncccc3c2[nH]1	84.2%
C=CC(=O)N1CCN(c2nc(=O)n(-c3c(C)ccnc3C(C)C)c3nc(-c4c(O)cccc4F)c(F)cc23)C(C)C1 (stereo unspecified) + Cc1cnc(CNC(=O)c2c(=O)c3ccc(N4CCCN(C)CC4)nc3n3c2sc2ccccc23)cn1	95.1%
COc1cccc2c1C(=O)c1c(O)c3c(c(O)c1C2=O)CC(O)(C(=O)CO)CC3OC1CC(N)C(O)C(C)O1 (stereo unspecified) + Cc1cnc(CNC(=O)c2c(=O)c3ccc(N4CCCN(C)CC4)nc3n3c2sc2ccccc23)cn1	95.1%
CC1COCCN1c1cc(-c2ccnn2C)c2ccnc(-c3ccn[nH]3)c2n1 (stereo unspecified) + Cc1[nH]c2ccc(F)cc2c1-c1nc2c3cccnc3c3ncccc3c2[nH]1	80.6%
Cc1cccc(N(C)C(=O)C2C(O)CCN2c2nc(C)cc(C(F)(F)F)c2C#N)c1 (stereo unspecified) + Cc1[nH]c2ccc(F)cc2c1-c1nc2c3cccnc3c3ncccc3c2[nH]1	106%
CCCS(=O)(=O)Nc1ccc(F)c(C(=O)c2c[nH]c3ncc(-c4ccc(Cl)cc4)cc23)c1F + Cc1[nH]c2ccc(F)cc2c1-c1nc2c3cccnc3c3ncccc3c2[nH]1	96.2%
COc1cccc2c1C(=O)c1c(O)c3c(c(O)c1C2=O)CC(O)(C(=O)CO)CC3OC1CC(N)C(O)C(C)O1 (stereo unspecified) + Cc1[nH]c2ccc(F)cc2c1-c1nc2c3cccnc3c3ncccc3c2[nH]1	100%
C#Cc1c(F)ccc2cc(O)cc(-c3ncc4c(N5CC6CCC(C5)N6)nc(OCC56CCCN5CC(F)C6)nc4c3F)c12 (stereo unspecified) + Cc1cnc(CNC(=O)c2c(=O)c3ccc(N4CCCN(C)CC4)nc3n3c2sc2ccccc23)cn1	81.9%
COc1ncnc(C2CC2)c1-c1ncc2cnn(Cc3ccc(-c4nc(C(F)(F)F)cn4C(C)C)cc3)c2n1 + Cc1cnc(CNC(=O)c2c(=O)c3ccc(N4CCCN(C)CC4)nc3n3c2sc2ccccc23)cn1	92%
COc1cc(C2c3cc4c(cc3C(OC3OC5COC(C)OC5C(O)C3O)C3COC(=O)C23)OCO4)cc(OC)c1O (stereo unspecified) + CN(C)c1ccc(Nc2c3ccc(NC(=O)CCN4CCCC4)cc3nc3cc(NC(=O)CCN4CCCC4)ccc23)cc1	93.9%
COc1cc(C2c3cc4c(cc3C(OC3OC5COC(C)OC5C(O)C3O)C3COC(=O)C23)OCO4)cc(OC)c1O (stereo unspecified) + Cc1[nH]c2ccc(F)cc2c1-c1nc2c3cccnc3c3ncccc3c2[nH]1	99.7%
CC(C)n1c(=O)n(C)c2cnc3cc(F)c(-c4ccc(OCCCN5CCCCC5)nc4)cc3c21 + Cc1[nH]c2ccc(F)cc2c1-c1nc2c3cccnc3c3ncccc3c2[nH]1	94.7%
C=CC(=O)N1CCN(c2nc(=O)n(-c3c(C)ccnc3C(C)C)c3nc(-c4c(O)cccc4F)c(F)cc23)C(C)C1 (stereo unspecified) + CN(C)c1ccc(Nc2c3ccc(NC(=O)CCN4CCCC4)cc3nc3cc(NC(=O)CCN4CCCC4)ccc23)cc1	91.4%
CC1COCCN1c1cc(C2(S(C)(=N)=O)CC2)nc(-c2ccnc3[nH]ccc23)n1 (stereo unspecified) + CN(C)c1ccc(Nc2c3ccc(NC(=O)CCN4CCCC4)cc3nc3cc(NC(=O)CCN4CCCC4)ccc23)cc1	90%
CC1COCCN1c1cc(C2(O)CC3CCC(C2)O3)c2cnn(-c3ccn[nH]3)c2n1 (stereo unspecified) + CN(C)c1ccc(Nc2c3ccc(NC(=O)CCN4CCCC4)cc3nc3cc(NC(=O)CCN4CCCC4)ccc23)cc1	72.1%
Nc1ccn(C2OC(CO)C(O)C2(F)F)c(=O)n1 (stereo unspecified) + Cc1cnc(CNC(=O)c2c(=O)c3ccc(N4CCCN(C)CC4)nc3n3c2sc2ccccc23)cn1	65.9%
CCCS(=O)(=O)Nc1ccc(F)c(C(=O)c2c[nH]c3ncc(-c4ccc(Cl)cc4)cc23)c1F + Cc1cnc(CNC(=O)c2c(=O)c3ccc(N4CCCN(C)CC4)nc3n3c2sc2ccccc23)cn1	103%
CC1COCCN1c1cc(C2(S(C)(=N)=O)CC2)nc(-c2ccnc3[nH]ccc23)n1 (stereo unspecified) + Cc1[nH]c2ccc(F)cc2c1-c1nc2c3cccnc3c3ncccc3c2[nH]1	92.5%
O=C(NO)c1cnc(N2CCN(S(=O)(=O)c3ccc4ccccc4c3)CC2)nc1 + Cc1[nH]c2ccc(F)cc2c1-c1nc2c3cccnc3c3ncccc3c2[nH]1	86%
COc1ncnc(C2CC2)c1-c1ncc2cnn(Cc3ccc(-c4nc(C(F)(F)F)cn4C(C)C)cc3)c2n1 + Cc1[nH]c2ccc(F)cc2c1-c1nc2c3cccnc3c3ncccc3c2[nH]1	86.8%
